# ASSAY REMARKS: A CellTox Green Cytotoxicity Assay to monitor cytotoxicity in HEK293 cells - 16 hour (AID 1224888); note: nearly all actives have a fitted effect of over 35% in size
# CONDITION: CellTox Green fluorescence; series mostly up to 76.8 µM
Inconclusive results are not listed. The source made the active and inactive calls. Calls come from the whole dose curve; as a rule, active = well fitted activation curve with a large enough effect in the repeat runs; inconclusive = weak or mixed curves; inactive = flat fitted curve, though single readings scatter.
REPORTED PROPERTY: activity change

Quick check: activity change of c1ccc(Cc2ccccc2)cc1 ?
inactive

What would you report for C=COCC1CCC(COC=C)CC1 (configuration not stated) ?
inactive

What would you report for O=C(O)c1cn(C2CC2)c2cc(N3CCNCC3)c(F)cc2c1=O ?
inactive

What would you report for CCOC(=O)OC(C)OC1=C(C(=O)Nc2ccccn2)N(C)S(=O)(=O)c2ccccc21 (configuration not stated) ?
inactive

What would you report for CC1OC1C1CCC2(C)OC2C1 (configuration not stated) ?
inactive

What would you report for Nc1ccccn1 ?
inactive

Now look at this entry.
Quick check: activity change of CC(C)c1ccc2ncccc2c1 ?
inactive

Where these numbers come from: PubChem BioAssay (Tox21)
